meta.source: PubChem BioAssay

test: viability loss with induced miR-34 in A549 – imaging, A549 dox-inducible miR-34, nuclei and caspase counts, primary screen (AID 1347080); details: A549 miR-34 inducible, Hoechst nuclei count, 48 h; measured here: total cells with miR-34 induction; stronger effect = lower value; also: test concentration not given here
Where a SMILES comes first, the peptide text is derived from it. The star is where a group is joined. Cbz = O=C(OCc1ccccc1)*
Threshold 8000. cell count below it: 1. cell count at it or above: 0.

For orientation, consider the following solved cases.
* Cc1nc(NC(=O)NCC2COc3ccccc3O2)nn1C(C)C (centres undefined) | 0
* CC(C)CC(C=O)NC(=O)C(CC(C)C)NC(=O)C(CC(C)C)NC(=O)OCc1ccccc1 (stereo not drawn) (Cbz-Leu-Leu-Leu-aldehyde; configuration not given here) | 1
* Cc1c(C(=O)Nc2ccc(N3CCC(N4CCOCC4)CC3)c(C#N)c2)cnn1-c1ccc(Cl)cc1 | 1
* NC[C@H]1O[C@H](O[C@H]2[C@H](O)[C@@H](O[C@H]3O[C@H](CO)[C@@H](O)[C@H](N)[C@H]3O)[C@H](N)C[C@@H]2N)[C@H](O)[C@@H](O)[C@@H]1O | 0
* COc1cccc2ccc(-c3coc4ccccc4c3=O)nc12 | 1
* Nc1ncnc2c1ncn2[C@@H]1O[C@H](CO)[C@H](O)C1O (some centres undefined) | 0

For this molecule, is cell count lower than 8000? "CCCCCCCCCCOCCC(=O)O"
1

Quick check: does O=c1[nH]cnc2c1ncn2C1OC(CO)C(O)C1O (centres undefined) have cell count under 8000?
0

###

The reader will find reported z-score values listed item by item below.
assay: MELAS cybrid and Rieske KO viability enhancers – cell-based, MELAS cybrids, Rieske KO mouse fibroblasts, CellTiter-Glo, primary screen (AID 1508586); conditions: MELAS cybrid survival, low glucose, CellTiter-Glo 48 h; stronger effect = higher value;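 also: test concentration not given here; z relative to plate mean and SD of compound and empty wells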
No unit in the answer, please; the number alone is enough.

# example entries with known answers
- CN(C)c1ccc(N=Nc2ccccc2C(=O)O)cc1: -1.2
- NC1=NC(=O)C(=Cc2ccc(-c3ccc(C(=O)O)cc3)o2)S1: 0.721
- NC(Cc1c[nH]c2ccc(O)cc12)C(=O)O (centres undefined): -0.256
- O=C(Nc1ccccc1Cl)N[C@H]1C[C@H]2C(=O)N[C@H](Cc3ccc(O)cc3)C(=O)N2C1: -0.242

For the compound CCNC(=O)CCCC=CCC1C(O)CC(O)C1C=CC(O)CCc1ccccc1 (centres undefined) , what z-score is on record?
-0.401

Look up z-score for this compound: "Cc1csc(-c2cc(C(=O)NCCN3CCCCC3)cc(S(=O)(=O)N3CCOCC3)c2)c1"
0.0708

Reported z-score for "Cc1ncsc1-c1ccn(CC(=O)Nc2ccnn2Cc2cccs2)n1" : what is it?
-0.383

May I ask what z-score has been recorded for "Cc1nc(CCNC(=O)Nc2nnc(-c3cccs3)s2)sc1C" ?
-0.443

Sample "CC(C)C[C@H](NC(=O)[C@@H](Cc1c[nH]c2ccccc12)NC(=O)[C@H](Cc1ccc(O)cc1)NC(=O)[C@H](CO)NC(=O)[C@H](Cc1c[nH]c2ccccc12)NC(=O)[C@H](Cc1cnc[nH]1)NC(=O)[C@@H]1CCC(=O)N1)C(=O)N[C@@H](CCCN=C(N)N)C(=O)N1CCC[C@H]1C(=O)NCC(N)=O" — what was its z-score?
0.161
